assayTarget: glucocorticoid receptors (Homo sapiens)
experimentSummary: GR functional assay using SW1353/MMTV-5 cells (dexamethasone-induced luciferase)
Format: cell-based
Design: contains endogenous glucocorticoid receptors; endogenous in cells; host or cells: SW1353/MMTV-5 (human chondrosarcoma, stably carrying the pMAMneo-Luc reporter)
details: read-out: GR Functional
Documented Ki across a set of compounds

* CC(C)(C)c1ccc(S(=O)(=O)N2CCC3=Cc4c(cnn4-c4ccncc4)C[C@]3(C)C2)cc1 | > 100 nM
* CCCCS(=O)(=O)N1CCC2=Cc3c(cnn3-c3ccc(F)cc3)C[C@]2(COCCOC)C1 | 10 to 100 nM
* C=CCNC[C@]12Cc3cnn(-c4ccc(F)cc4)c3C=C1CCN(S(=O)(=O)c1ccc(C(C)(C)C)cc1)C2 | 10 to 100 nM
* Cc1ccc(S(=O)(=O)N2CCC3=Cc4c(cnn4-c4ccc(F)cc4)C[C@]3(CN(C)C)C2)cc1 | 10 to 100 nM
* COCCOC[C@]12Cc3cnn(-c4ccc(F)cc4)c3C=C1CCN(S(=O)(=O)N(C)C)C2 | > 100 nM
* COC[C@]12Cc3cnn(-c4ccc(F)cc4)c3C=C1CCN(S(=O)(=O)c1ccccc1)C2 | 10 to 100 nM
* CCCCn1ncc2c1C=C1CCN(S(=O)(=O)c3ccc(C)cc3)C[C@@]1(COC)C2 | > 100 nM
* O=S(=O)(c1ccc(F)cc1)N1CCC2=Cc3c(cnn3-c3ccc(F)cc3)C[C@]2(CO)C1 | > 100 nM

Query the reported Ki for glucocorticoid receptors (Homo sapiens); item: COCC[C@]12Cc3cnn(-c4ccc(F)cc4)c3C=C1CCN(S(=O)(=O)c1ccc(C(C)(C)C)cc1)C2
< 10 nM

----------
assayTarget: glucocorticoid receptors (Homo sapiens, UniProt P04150)
experimentSummary: GR functional assay using SW1353/MMTV-5 cells (dexamethasone-induced luciferase)
Type: cell-based
Design: contains endogenous glucocorticoid receptors; endogenous in cells; host or cells: SW1353/MMTV-5 (human chondrosarcoma, stably carrying the pMAMneo-Luc reporter)
details: read-out: GR Functional
pKi: −log10 of the molar value.
Documented pKi across a set of compounds

* CC(O)[C@]12Cc3cnn(-c4ccc(F)cc4)c3C=C1CCN(S(=O)(=O)c1ccc(C(C)(C)C)cc1)C2 (some centres unmarked) | 7.00 to 8.00
* O=S(=O)(N1CCCCC1)N1CCC2=Cc3c(cnn3-c3ccc(F)cc3)CC2(Cc2ccc(F)cc2)C1 (centres unmarked) | < 7.00
* CC(C)S(=O)(=O)N1CCC2=Cc3c(cnn3-c3ccc(F)cc3)CC2(Cc2ccccc2)C1 (centres unmarked) | < 7.00
* CCCN1CCC2=Cc3c(cnn3-c3ccc(F)cc3)CC2(Cc2ccc(F)cc2)C1 (centres unmarked) | < 7.00

Please look up its pKi: O=S(=O)(c1ccc(F)cc1)N1CCC2=Cc3c(cnn3-c3ccc(F)cc3)CC2(Cc2ccc(F)cc2)C1 (centres unmarked)
7.00 to 8.00

Please look up its pKi: CC(C)(C)c1ccc(S(=O)(=O)N2CCC3=Cc4c(cnn4-c4ccc(F)cc4)C[C@]3(CO)C2)cc1
7.00 to 8.00

Please look up its pKi: COCCOC[C@]12Cc3cnn(-c4ccc(F)cc4)c3C[C@@H]1CCN(S(=O)(=O)c1ccccc1)C2
7.00 to 8.00

Please look up its pKi: Fc1ccc(-n2ncc3c2C=C2CCN(Cc4ccccc4)CC2(Cc2ccccc2)C3)cc1 (centres unmarked) [drawing 242]
< 7.00

----------
assayTarget: glucocorticoid receptors (Homo sapiens, UniProt P04150)
experimentSummary: GR functional assay using SW1353/MMTV-5 cells (dexamethasone-induced luciferase)
Type: cell-based
Set-up: contains endogenous glucocorticoid receptors; endogenous in cells; host or cells: SW1353/MMTV-5 (human chondrosarcoma, stably carrying the pMAMneo-Luc reporter)
details: read-out: GR Functional
quantity: Ki

See these solved cases before continuing.
• CCN(CC)C[C@]12Cc3cnn(-c4ccc(F)cc4)c3C=C1CCN(S(=O)(=O)c1ccc(OC)cc1)C2 = 10 to 100 nM
• Cc1ccc(S(=O)(=O)N2CCC3=Cc4c(cnn4-c4ccc(F)cc4)C[C@]3(CO)C2)cc1 = 10 to 100 nM
• COC[C@]12Cc3cnn(-c4ccc(F)cc4)c3C=C1CCN(S(=O)(=O)c1ccc(C(C)(C)C)cc1)C2 = < 10 nM

Proceeding to the next compound to report its Ki.
Please look up its Ki: Fc1ccc(-n2ncc3c2C=C2CCN(Cc4c[nH]cn4)CC2(Cc2ccccc2)C3)cc1 (stereo not shown)
> 100 nM

----------
assayTarget: glucocorticoid receptors (Homo sapiens, UniProt P04150)
Sequence (P04150 1-777): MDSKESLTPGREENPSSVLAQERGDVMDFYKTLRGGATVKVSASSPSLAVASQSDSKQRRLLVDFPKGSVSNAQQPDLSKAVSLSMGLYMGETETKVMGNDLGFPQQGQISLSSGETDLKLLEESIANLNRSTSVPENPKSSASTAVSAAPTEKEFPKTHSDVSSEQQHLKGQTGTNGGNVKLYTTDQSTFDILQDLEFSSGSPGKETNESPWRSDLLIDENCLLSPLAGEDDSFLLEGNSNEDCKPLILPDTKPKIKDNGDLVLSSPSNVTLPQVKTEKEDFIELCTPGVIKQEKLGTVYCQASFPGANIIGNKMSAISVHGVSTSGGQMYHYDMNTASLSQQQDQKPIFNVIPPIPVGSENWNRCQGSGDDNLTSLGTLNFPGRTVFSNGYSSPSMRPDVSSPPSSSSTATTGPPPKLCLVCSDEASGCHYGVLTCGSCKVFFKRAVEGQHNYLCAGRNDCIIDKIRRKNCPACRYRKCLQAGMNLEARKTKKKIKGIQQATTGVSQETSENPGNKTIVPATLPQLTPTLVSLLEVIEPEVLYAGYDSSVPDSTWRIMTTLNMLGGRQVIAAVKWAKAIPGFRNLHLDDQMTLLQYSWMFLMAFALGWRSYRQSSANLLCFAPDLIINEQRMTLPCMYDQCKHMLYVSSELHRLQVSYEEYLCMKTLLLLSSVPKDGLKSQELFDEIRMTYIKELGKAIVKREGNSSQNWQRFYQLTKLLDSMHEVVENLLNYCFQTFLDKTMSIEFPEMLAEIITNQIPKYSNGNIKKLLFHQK
experimentSummary: Glucocorticoid receptor binding displacement assay with 3H-dexamethasone
Design: This GR was a full-length steroid hormone receptor; host or cells: recombinant baculovirus-infected insect cells
details: Ki from IC50 by Cheng-Prusoff; 2.5 nM 3H-dexamethasone; read-out: GR Binding
Protocol: The source of the receptor was recombinant baculovirus-infected insect cells. This GR was a full-length steroid hormone receptor likely to be associated with heat-shock and other endogenous proteins. […] After 2.5 hrs incubation, unbound counts were removed with dextran coated charcoal (DCC) as follows: 25 μl of DCC solution (10% DCC in assay buffer) was added to all wells and mixed (total volume 225 μl). […] The plate was vigorously shaken for approx. 10 minutes and counted on Topcount. […]
Documented Ki across a set of molecules

See these solved cases before continuing.
• CN(C)CC[C@]12Cc3cnn(-c4ccc(F)cc4)c3C=C1CCN(S(=O)(=O)c1ccc(C(C)(C)C)cc1)C2 = 0.01 to 0.1 µM
• O=S(=O)(c1ccccc1F)N1CCC2=Cc3c(cnn3-c3ccc(F)cc3)C[C@]2(CN2CCOCC2)C1 = < 0.01 µM
• COCCOC[C@]12Cc3cnn(C4CCCC4)c3C=C1CCN(S(=O)(=O)c1ccc(C)cc1)C2 = < 0.01 µM

Proceeding to the next molecule to report its Ki.
Please look up its Ki: CC(C)(C)c1ccc(S(=O)(=O)N2CCC3=Cc4c(cnn4-c4ccc(F)cc4)C[C@]3(COCCC#N)C2)cc1
< 0.01 µM

----------
Documented pKi across a set of compounds
assayTarget: glucocorticoid receptors (Homo sapiens)
Sequence (P04150 1-777): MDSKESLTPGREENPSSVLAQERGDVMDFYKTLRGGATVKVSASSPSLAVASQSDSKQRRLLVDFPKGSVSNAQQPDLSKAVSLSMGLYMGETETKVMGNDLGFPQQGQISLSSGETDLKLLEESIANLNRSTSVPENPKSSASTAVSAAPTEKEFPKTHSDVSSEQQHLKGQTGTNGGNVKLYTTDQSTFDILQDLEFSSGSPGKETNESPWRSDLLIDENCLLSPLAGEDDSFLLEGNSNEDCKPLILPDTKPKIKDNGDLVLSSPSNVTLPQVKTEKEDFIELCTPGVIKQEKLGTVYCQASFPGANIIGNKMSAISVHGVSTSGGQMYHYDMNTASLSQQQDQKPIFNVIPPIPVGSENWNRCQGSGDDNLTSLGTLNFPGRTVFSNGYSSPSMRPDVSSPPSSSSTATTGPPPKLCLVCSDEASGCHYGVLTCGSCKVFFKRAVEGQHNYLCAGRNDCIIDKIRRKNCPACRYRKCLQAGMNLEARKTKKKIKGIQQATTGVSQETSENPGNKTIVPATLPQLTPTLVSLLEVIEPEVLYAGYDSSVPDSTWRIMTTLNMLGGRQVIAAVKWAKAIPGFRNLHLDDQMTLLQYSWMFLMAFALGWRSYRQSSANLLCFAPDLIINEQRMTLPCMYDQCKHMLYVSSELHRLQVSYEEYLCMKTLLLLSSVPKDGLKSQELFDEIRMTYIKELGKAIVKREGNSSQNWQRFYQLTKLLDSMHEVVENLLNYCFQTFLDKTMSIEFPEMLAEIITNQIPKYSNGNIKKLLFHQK
experimentSummary: GR functional assay using SW1353/MMTV-5 cells (dexamethasone-induced luciferase)
Format: cell-based
Design: contains endogenous glucocorticoid receptors; endogenous in cells; host or cells: SW1353/MMTV-5 (human chondrosarcoma, stably carrying the pMAMneo-Luc reporter)
details: read-out: GR Functional
pKi: −log10 of the molar value.

Query the reported pKi for glucocorticoid receptors (Homo sapiens); item: CC(C)(C)c1ccc(S(=O)(=O)N2CCC3=Cc4c(cnn4CC(F)(F)F)C[C@]3(CN3CCCC3)C2)cc1
< 7.00

Query the reported pKi for glucocorticoid receptors (Homo sapiens); item: CCNC(=O)[C@]12Cc3cnn(-c4ccc(F)cc4)c3C=C1CCN(S(=O)(=O)c1ccc(C(C)(C)C)cc1)C2
< 7.00

Query the reported pKi for glucocorticoid receptors (Homo sapiens); item: CC(C)(C)c1ccc(S(=O)(=O)N2CCC3=Cc4c(cnn4-c4ccc(F)cc4)C[C@]3(C(=O)N3CCCCC3)C2)cc1
< 7.00

Query the reported pKi for glucocorticoid receptors (Homo sapiens); item: COC[C@]12Cc3cnn(-c4ccc(F)cc4)c3C=C1CCN(S(=O)(=O)N(C)C)C2
< 7.00

Query the reported pKi for glucocorticoid receptors (Homo sapiens); item: CC(C)(C)c1ccc(S(=O)(=O)N2CCC3=Cc4c(cnn4-c4ccc(F)cc4)C[C@]3(COCCN3CCCCC3)C2)cc1
7.00 to 8.00

Query the reported pKi for glucocorticoid receptors (Homo sapiens); item: COC(=O)C[C@]12Cc3cnn(-c4ccc(F)cc4)c3C=C1CCN(S(=O)(=O)c1ccc(C(C)(C)C)cc1)C2
7.00 to 8.00

Query the reported pKi for glucocorticoid receptors (Homo sapiens); item: Cn1cnc(S(=O)(=O)N2CCC3=Cc4c(cnn4-c4ccc(F)cc4)CC3(Cc3ccc(F)cc3)C2)c1 (stereo not shown)
< 7.00

Query the reported pKi for glucocorticoid receptors (Homo sapiens); item: COc1ccc(CC23Cc4cnn(-c5ccc(F)cc5)c4C=C2CCN(Cc2ccccc2)C3)cc1 (stereo not shown) [drawing 244]
< 7.00

Query the reported pKi for glucocorticoid receptors (Homo sapiens); item: CC(C)(C)c1ccc(S(=O)(=O)N2CCC3=Cc4c(cnn4Cc4cccc(O)c4)CC3(Cc3ccccc3)C2)cc1 (stereo not shown) [drawing 241]
< 7.00

Query the reported pKi for glucocorticoid receptors (Homo sapiens); item: CC(C)(C)c1ccc(S(=O)(=O)N2CCC3=Cc4c(cnn4-c4ccc(F)cc4)CC3(Cc3ccccc3)C2)cc1 (stereo not shown) [drawing 233]
7.00 to 8.00

These entries and their values trace back to patent US8557839B2.
